test-name: physchem
Type: physicochemical
details: 0.1 n naoh, pH 7.15
property-label: solubility at 72 h (mg/mL)
Give the value in mg/mL but do not write mg/mL after it.

Note solubility at 72 h for the compound shown: CCc1cccc2c3c([nH]c12)[C@](CC)(CC(=O)O)OCC3 [S(+)-etodolac] 29.4

====

test-name: physchem
Format: physicochemical
details: 40% dimethylacetamide
Procedure: Equilibrium solubility data for S(+)-etodolac based on pH was determined by placing excess amounts of the S(+)-etodolac and about 5 mL of the dissolution medium in screw-capped vials which were covered with aluminum foil and then tumbled in a 25° C. water bath for 3 days. Slurries were filtered through […] Gelman disposable filters. Filtrates were appropriately diluted with their dissolution medium and analyzed by a Cary 210 UV-VIS spectrophotometer at 278 nm. […]
property-label: solubility at 72 h (mg/mL)
Give the value in mg/mL but do not write mg/mL after it.

CCc1cccc2c3c([nH]c12)[C@](CC)(CC(=O)O)OCC3 [S(+)-etodolac]; 9.96

Note solubility at 72 h for the compound shown: CCc1cccc2c3c([nH]c12)C(CC)(CC(=O)O)OCC3 (racemic) [etodolac] 7.28

====

test-name: physchem
Assay type: physicochemical
details: 20% peg 400, organic solvent or mixture
Reported solubility at 72 h values follow for various compounds
Give the value in µg/mL but do not write µg/mL after it.

CCc1cccc2c3c([nH]c12)[C@](CC)(CC(=O)O)OCC3 [S(+)-etodolac]; 663

# input for lookup
Note solubility at 72 h for the compound shown: CCc1cccc2c3c([nH]c12)C(CC)(CC(=O)O)OCC3 (racemic) [etodolac] 905

====

Reported solubility at 72 h values follow for various molecules
test-name: physchem
Assay type: physicochemical
details: 50% dimethylacetamide
Give the value in mg/mL but do not write mg/mL after it.

CCc1cccc2c3c([nH]c12)C(CC)(CC(=O)O)OCC3 (racemic); 34.9

# input for lookup
Note solubility at 72 h for the molecule shown: CCc1cccc2c3c([nH]c12)[C@](CC)(CC(=O)O)OCC3 [S(+)-etodolac] 89.1

====

test-name: physchem
Assay type: physicochemical
details: 0.001 n hcl, pH 3.24
property-label: solubility at 72 h
# do not omit the unit; it follows the number

Note solubility at 72 h for the molecule shown: CCc1cccc2c3c([nH]c12)[C@](CC)(CC(=O)O)OCC3 [S(+)-etodolac] 73 µg/mL

====

test-name: physchem
Type: physicochemical
details: 20% ethanol, organic solvent or mixture
property-label: solubility at 72 h (µg/mL)
Give the value in µg/mL but do not write µg/mL after it.

CCc1cccc2c3c([nH]c12)C(CC)(CC(=O)O)OCC3 (racemic); 279

# input for lookup
Note solubility at 72 h for the compound shown: CCc1cccc2c3c([nH]c12)[C@](CC)(CC(=O)O)OCC3 [S(+)-etodolac] 412

====

test-name: physchem
Format: physicochemical
details: 10% dimethylacetamide
Reported solubility at 72 h values follow for various compounds
Give the value in µg/mL but do not write µg/mL after it.

CCc1cccc2c3c([nH]c12)C(CC)(CC(=O)O)OCC3 (racemic); 468

# input for lookup
Note solubility at 72 h for the compound shown: CCc1cccc2c3c([nH]c12)[C@](CC)(CC(=O)O)OCC3 [S(+)-etodolac] 468

====

test-name: physchem
Format: physicochemical
details: 0.1 m phosphate buffer, pH 4.98, aqueous buffer
property-label: solubility at 72 h
# do not omit the unit; it follows the number

Note solubility at 72 h for the molecule shown: CCc1cccc2c3c([nH]c12)[C@](CC)(CC(=O)O)OCC3 [S(+)-etodolac] 263 µg/mL

====

test-name: physchem
Assay type: physicochemical
details: 0.1 n hcl, pH 2.13
property-label: solubility at 72 h (µg/mL)
Give the value in µg/mL but do not write µg/mL after it.

Note solubility at 72 h for the compound shown: CCc1cccc2c3c([nH]c12)[C@](CC)(CC(=O)O)OCC3 [S(+)-etodolac] 80

====

Reported solubility at 72 h values follow for various compounds
test-name: physchem
Assay type: physicochemical
details: 100% ethanol, organic solvent or mixture
Give the value in mg/mL but do not write mg/mL after it.

Note solubility at 72 h for the compound shown: CCc1cccc2c3c([nH]c12)[C@](CC)(CC(=O)O)OCC3 [S(+)-etodolac] 284

Note solubility at 72 h for the compound shown: CCc1cccc2c3c([nH]c12)C(CC)(CC(=O)O)OCC3 (racemic) 234

====

test-name: physchem
Format: physicochemical
details: 0.2 n naoh, pH 7.3
property-label: solubility at 72 h (mg/mL)
Give the value in mg/mL but do not write mg/mL after it.

Note solubility at 72 h for the compound shown: CCc1cccc2c3c([nH]c12)[C@](CC)(CC(=O)O)OCC3 [S(+)-etodolac] 58.8

====

Reported solubility at 72 h values follow for various compounds
test-name: physchem
Format: physicochemical
details: 8% triethanolamine
# do not omit the unit; it follows the number

CCc1cccc2c3c([nH]c12)[C@](CC)(CC(=O)O)OCC3 [S(+)-etodolac]; 235 mg/mL

# input for lookup
Note solubility at 72 h for the compound shown: CCc1cccc2c3c([nH]c12)C(CC)(CC(=O)O)OCC3 (racemic) 226 mg/mL

====

test-name: physchem
Type: physicochemical
details: 0.1 n hcl, pH 1.14
property-label: solubility at 72 h (µg/mL)
Give the value in µg/mL but do not write µg/mL after it.

Note solubility at 72 h for the compound shown: CCc1cccc2c3c([nH]c12)[C@](CC)(CC(=O)O)OCC3 [S(+)-etodolac] 80

====

test-name: physchem
Type: physicochemical
details: 80% peg 400, organic solvent or mixture
Reported solubility at 72 h values follow for various compounds
Give the value in mg/mL but do not write mg/mL after it.

CCc1cccc2c3c([nH]c12)C(CC)(CC(=O)O)OCC3 (racemic); 152

# input for lookup
Note solubility at 72 h for the compound shown: CCc1cccc2c3c([nH]c12)[C@](CC)(CC(=O)O)OCC3 [S(+)-etodolac] 643

====

test-name: physchem
Type: physicochemical
details: 0.1 m phosphate buffer, pH 5.82, aqueous buffer
property-label: solubility at 72 h (µg/mL)
Give the value in µg/mL but do not write µg/mL after it.

Note solubility at 72 h for the compound shown: CCc1cccc2c3c([nH]c12)[C@](CC)(CC(=O)O)OCC3 [S(+)-etodolac] 1210

====

test-name: physchem
Type: physicochemical
details: 40% peg 400, organic solvent or mixture
Reported solubility at 72 h values follow for various compounds
Give the value in µg/mL but do not write µg/mL after it.

CCc1cccc2c3c([nH]c12)C(CC)(CC(=O)O)OCC3 (racemic); 3580

# input for lookup
Note solubility at 72 h for the compound shown: CCc1cccc2c3c([nH]c12)[C@](CC)(CC(=O)O)OCC3 [S(+)-etodolac] 3060

====

test-name: physchem
Format: physicochemical
details: 0.1 m acetate buffer, pH 4.03, aqueous buffer
property-label: solubility at 72 h (µg/mL)
Give the value in µg/mL but do not write µg/mL after it.

Note solubility at 72 h for the compound shown: CCc1cccc2c3c([nH]c12)[C@](CC)(CC(=O)O)OCC3 [S(+)-etodolac] 93

====

test-name: physchem
Type: physicochemical
details: 0.04 m borate buffer, pH 8.61, aqueous buffer
property-label: solubility at 72 h (mg/mL)
Give the value in mg/mL but do not write mg/mL after it.

Note solubility at 72 h for the molecule shown: CCc1cccc2c3c([nH]c12)[C@](CC)(CC(=O)O)OCC3 [S(+)-etodolac] 11.6

====

test-name: physchem
Assay type: physicochemical
details: 0.01 m phosphate buffer, pH 6.4, aqueous buffer
property-label: solubility at 72 h
# do not omit the unit; it follows the number

Note solubility at 72 h for the compound shown: CCc1cccc2c3c([nH]c12)[C@](CC)(CC(=O)O)OCC3 [S(+)-etodolac] 4560 µg/mL

====

test-name: physchem
Format: physicochemical
details: 20% dimethylacetamide
Method: Equilibrium solubility data for S(+)-etodolac based on pH was determined by placing excess amounts of the S(+)-etodolac and about 5 mL of the dissolution medium in screw-capped vials which were covered with aluminum foil and then tumbled in a 25° C. water bath for 3 days. Slurries were filtered through […] Gelman disposable filters. Filtrates were appropriately diluted with their dissolution medium and analyzed by a Cary 210 UV-VIS spectrophotometer at 278 nm. […]
Reported solubility at 72 h values follow for various molecules

CCc1cccc2c3c([nH]c12)C(CC)(CC(=O)O)OCC3 (racemic); 956 µg/mL

Note solubility at 72 h for the molecule shown: CCc1cccc2c3c([nH]c12)[C@](CC)(CC(=O)O)OCC3 [S(+)-etodolac] 1250 µg/mL

====

Reported solubility at 72 h values follow for various compounds
test-name: physchem
Type: physicochemical
details: 60% dimethylacetamide
Give the value in mg/mL but do not write mg/mL after it.

CCc1cccc2c3c([nH]c12)C(CC)(CC(=O)O)OCC3 (racemic) [etodolac]; 52.1

# input for lookup
Note solubility at 72 h for the compound shown: CCc1cccc2c3c([nH]c12)[C@](CC)(CC(=O)O)OCC3 [S(+)-etodolac] 256
